Listed below: melting point values for each entry.

molecule	endpoint-label	test-result
CC(C)c1cc(-c2ccc(F)cc2)c(OCc2ccccc2)c(C(C)C)c1	melting point	65 to 67 °C
Cc1nsc(OCC(Cl)(Cl)Cl)c1S(N)(=O)=O	melting point	140 to 142 °C
O=C1C(c2c[nH]c3ccccc23)=C(c2c[nH]c3ccccc23)C(=O)N1c1ccccc1	melting point	> 290 °C
CC(F)(F)c1cccc(C[C@@H](NC(=O)c2cccc3c2C=CCCC3)[C@@H](O)c2ccc(F)cc2)c1 (racemic)	melting point	170 to 171 °C

Lab note: next molecule to report on.
input: For the molecule COC1=C(OC)C(=O)C(CCCCCCCCCCCCCCCCCCCCO)=C(C)C1=O , what melting point is on record?
output: 85 °C
